Below, each entry is listed with its recorded % Reduction of Plasma Renin Activity.
System: plasma renin
Test: oral activity in vivo in sodium depleted Marmoset monkeys, plasma renin activity
Design: species or system Common marmosets (Callithrix jacchus)
Conditions: 1 h, 3 mg/kg dose

Tell me its % Reduction of Plasma Renin Activity given CNCCN(C)C(=O)O[C@@H](Cc1ccccc1)C(=O)N[C@@H](CC(C)C)C(=O)N[C@@H](CC1CCCCC1)[C@@H](O)[C@@H](O)CC(C)C [Example 11] as the entry.
100%

Tell me its % Reduction of Plasma Renin Activity given CNCCN(C)C(=O)O[C@@H](Cc1ccccc1)C(=O)N[C@@H](Cc1c[nH]cn1)C(=O)N[C@@H](CC1CCCCC1)[C@@H](O)[C@@H](O)CC(C)C [Example 10] as the entry.
100%

Tell me its % Reduction of Plasma Renin Activity given CC(C)C[C@H](NC(=O)[C@H](Cc1ccccc1)OC(=O)N(C)CCN(C)C)C(=O)N[C@@H](CC1CCCCC1)[C@@H](O)[C@@H](O)CC(C)C [Example 15] as the entry.
79%

Next:
Tell me its % Reduction of Plasma Renin Activity given CC(C)C[C@H](O)[C@H](O)[C@H](CC1CCCCC1)NC(=O)[C@H](Cc1c[nH]cn1)NC(=O)[C@H](Cc1ccccc1)OC(=O)N(C)CCN(C)C [Example 8] as the entry.
100%

###

Below, each entry is listed with its recorded IC50.
Molecular target: human renin (Homo sapiens, UniProt P00797)
Assay: human renin inhibition test in vitro (angiotensin I by radioimmunoassay)
Details: human plasma, pH 7.4, 37° C., two hours
// units = nM; emit number, no label

The examples below pair each entry with its known result.
Tell me its IC50 given CC(C)C[C@H](O)[C@H](O)[C@H](CC1CCCCC1)NC(=O)[C@H](Cc1c[nH]cn1)NC(=O)[C@H](Cc1ccccc1)OC(=O)N(C)CCN(C)C [Example 8] as the entry.
1

Tell me its IC50 given CC(C)C[C@H](NC(=O)[C@H](Cc1ccccc1)OC(=O)N(CCN(C)C)C(C)C)C(=O)N[C@@H](CC1CCCCC1)[C@@H](O)[C@@H](O)CC(C)C [Example 20] as the entry.
19

# next molecule below
Tell me its IC50 given CC(C)C[C@H](O)[C@H](O)[C@H](CC1CCCCC1)NC(=O)[C@H](C)CNC(=O)[C@@H](CC(=O)N(C)CCN(C)C)Cc1ccccc1 [Example 19] as the entry.
48

###

Target: UniProtKB P00797
Sequence (P00797 67-406): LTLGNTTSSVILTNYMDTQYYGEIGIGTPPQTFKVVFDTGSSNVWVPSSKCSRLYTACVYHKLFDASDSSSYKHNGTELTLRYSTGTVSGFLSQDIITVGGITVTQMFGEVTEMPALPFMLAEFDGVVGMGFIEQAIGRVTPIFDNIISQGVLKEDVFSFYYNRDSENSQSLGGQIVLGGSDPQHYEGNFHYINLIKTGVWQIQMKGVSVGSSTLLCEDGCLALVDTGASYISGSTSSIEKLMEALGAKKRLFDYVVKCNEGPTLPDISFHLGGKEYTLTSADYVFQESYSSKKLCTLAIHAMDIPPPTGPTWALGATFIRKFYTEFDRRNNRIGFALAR
Assay: human renin inhibition test in vitro (angiotensin I by radioimmunoassay)
Conditions: human plasma, pH 7.4, 37° C., two hours
Where a name gives a salt, the structure may show the parent alone.
Please use the following IC50 ranges when assigning a class: 1: < 8 nM; 2: ≥ 8 nM and < 100 nM; 3: ≥ 100 nM

These recorded examples may help you get a feel for the data.
Just checking, what class would you give `CC(C)C[C@H](NC(=O)[C@H](Cc1ccccc1)OC(=O)N(C)CCN(C)C)C(=O)N[C@@H](CC1CCCCC1)[C@@H](O)[C@@H](O)CC(C)C` here?
1

Just checking, what class would you give `CC(C)C[C@H](O)[C@H](O)[C@H](CC1CCCCC1)NC(=O)[C@H](C)CNC(=O)[C@H](Cc1ccccc1)OC(=O)N(C)CCN(C)C` here?
3

Just checking, what class would you give CNCCN(C)C(=O)C[C@@H](CCc1ccccc1)C(=O)NC[C@@H](C)C(=O)N[C@@H](CC1CCCCC1)[C@@H](O)[C@@H](O)CC(C)C [Example 28, trifluoroacetate salt] here?
2

Next:
Just checking, what class would you give `CNCCN(C)C(=O)O[C@@H](Cc1ccccc1)C(=O)N[C@@H](Cc1c[nH]cn1)C(=O)N[C@@H](CC1CCCCC1)[C@@H](O)[C@@H](O)CC(C)C` here?
1

Just checking, what class would you give `CC(C)C[C@H](O)[C@H](O)[C@H](CC1CCCCC1)NC(=O)[C@H](Cc1c[nH]cn1)NC(=O)[C@H](Cc1ccccc1)OC(=O)N(C)CCN(C)C(=O)OC(C)(C)C` here?
1

Just checking, what class would you give `CNCCN(C)C(=O)O[C@@H](Cc1ccccc1)C(=O)N[C@@H](CC(C)C)C(=O)N[C@@H](CC1CCCCC1)[C@@H](O)[C@@H](O)CC(C)C` here?
1

Just checking, what class would you give `CNCCCCN(C)C(=O)C[C@@H](CCc1ccccc1)C(=O)NC[C@@H](C)C(=O)N[C@@H](CC1CCCCC1)[C@@H](O)[C@@H](O)CC(C)C` here?
2

Just checking, what class would you give `CC(C)C[C@H](O)[C@H](O)[C@H](CC1CCCCC1)NC(=O)[C@H](C)CNC(=O)[C@H](CCc1ccccc1)CC(=O)N(C)CCCCN(C)C(=O)OC(C)(C)C` here?
3

Just checking, what class would you give `CC(C)C[C@H](O)[C@H](O)[C@H](CC1CCCCC1)NC(=O)[C@H](C)CNC(=O)[C@H](Cc1ccccc1)OC(=O)N(C)CCN(C)C(=O)OC(C)(C)C` here?
2

Just checking, what class would you give `CC(C)C[C@H](O)[C@H](O)[C@H](CC1CCCCC1)NC(=O)[C@H](C)CNC(=O)[C@H](CCc1ccccc1)OC(=O)N(C)CCN(C)C` here?
3

Just checking, what class would you give `CC(C)C[C@H](O)[C@H](O)[C@H](CC1CCCCC1)NC(=O)[C@H](C)CNC(=O)[C@H](CCc1ccccc1)CC(=O)N(C)CCN(C)C(=O)OC(C)(C)C` here?
2
